# experiment: Half life in Wistar Han rat at 1 mg/kg, iv measured upto 7 hrs by LC-MS/MS analysis
# Format: ADME, organism-based
# cond: in vivo
property: half-life (min)

Observe how each entry below is paired with its result.
# smi, half-life (min)
records = [
    ("CNC(=O)c1cc(C(=O)N[C@H]2C[C@@H]2C)cc2c1OC[C@@]2(CO)c1ccccc1", 18),
    ("CNC(=O)c1cc(C(=O)NC2CC2)cc2c1OC[C@H]2c1ccccc1", 18),
]

(1) CNC(=O)c1cc(C(=O)N[C@H]2[C@@H]3C[C@@H](O)C[C@@H]32)cc2c1OC[C@@]2(C)c1ccccc1
(2) CNC(=O)c1cc(C(=O)N[C@H]2[C@@H]3COC[C@@H]32)cc2c1OC[C@@]2(C)c1ccccc1
Sorting ascending by half-life, which comes first: 1 or 2 ? I would appreciate it if you answered with the label of your choice.
2
(2: 18 min, 1: 42 min)

This collection of values is drawn from ChEMBL document CHEMBL4834466.
